Assay: AUC (0 to 24 hrs) in cynomolgus monkey serum at 5 mg/kg, po
Assay type: ADME, organism-based, Macaca fascicularis
Parameters: time < 24 hr, dose 5 mg/kg, route oral
Catalogue of AUC(0-t) at 24 h values
Report the value in ng·h/mL with no unit label.

Recorded AUC(0-t) at 24 h, per entry:
COc1c(N2C[C@@H]3CCOC[C@@]3(N)C2)c(F)cc2c(=O)c(C(=O)O)cn([C@@H]3C[C@@H]3F)c12.CS(=O)(=O)O    19800
COc1c(N2CC3(CC3)[C@](C)(N)C2)c(F)cc2c(=O)c(C(=O)O)cn([C@@H]3C[C@@H]3F)c12    16900
C[C@H]1COc2c(N3CCN(C)CC3)c(F)cc3c(=O)c(C(=O)O)cn1c23.C[C@H]1COc2c(N3CCN(C)CC3)c(F)cc3c(=O)c(C(=O)O)cn1c23.O    15200

Moving on to another compound below.
### Prompt Entry COc1c(N2C[C@@H]3CCCN[C@@H]3C2)c(F)cc2c(=O)c(C(=O)O)cn(C3CC3)c12.Cl.O [MOXIFLOXACIN HYDROCHLORIDE HYDRATE] has what AUC(0-t) at 24 h?
### Response 6630

###

System: Klebsiella pneumoniae
Assay: Antibacterial activity against Klebsiella pneumoniae TYPE 1 after 18 hrs by two-fold microbroth dilution method
Type: functional
Condition Parameters: TYPE 1, 18 h
Measured Quantity: MIC

Examples with their reported MIC follow.
N[C@@]12CCC[C@@H]1CNC2    0.1 µg/mL
COc1c(N2C[C@@H]3CCOC[C@@]3(N)C2)c(F)cc2c(=O)c(C(=O)O)cn([C@@H]3C[C@@H]3F)c12    0.05 µg/mL
N[C@@]12CCCC[C@@H]1CNC2    0.1 µg/mL
COc1c(N2C[C@H]3CCOC[C@@]3(N)C2)c(F)cc2c(=O)c(C(=O)O)cn([C@@H]3C[C@@H]3F)c12    0.2 µg/mL

# next compound below
### Prompt Requested field: MIC. Item: `N[C@@]12CCCC[C@H]1CNC2`
### Response 0.05 µg/mL

###

Assay: Half life in cynomolgus monkey serum at 5 mg/kg, po
Type: ADME, organism-based, Macaca fascicularis
Measured Quantity: half-life (h)
Return type: number; implicit unit h.

### Prompt Data request, read-out half-life, for `COc1c(N2C[C@@H]3CCOC[C@@]3(N)C2)c(F)cc2c(=O)c(C(=O)O)cn([C@@H]3C[C@@H]3F)c12.CS(=O)(=O)O`
### Response 4.6

###

Target Or Test System: hERG (KCNH2) (Homo sapiens)
Sequence (Q12809 whole entry): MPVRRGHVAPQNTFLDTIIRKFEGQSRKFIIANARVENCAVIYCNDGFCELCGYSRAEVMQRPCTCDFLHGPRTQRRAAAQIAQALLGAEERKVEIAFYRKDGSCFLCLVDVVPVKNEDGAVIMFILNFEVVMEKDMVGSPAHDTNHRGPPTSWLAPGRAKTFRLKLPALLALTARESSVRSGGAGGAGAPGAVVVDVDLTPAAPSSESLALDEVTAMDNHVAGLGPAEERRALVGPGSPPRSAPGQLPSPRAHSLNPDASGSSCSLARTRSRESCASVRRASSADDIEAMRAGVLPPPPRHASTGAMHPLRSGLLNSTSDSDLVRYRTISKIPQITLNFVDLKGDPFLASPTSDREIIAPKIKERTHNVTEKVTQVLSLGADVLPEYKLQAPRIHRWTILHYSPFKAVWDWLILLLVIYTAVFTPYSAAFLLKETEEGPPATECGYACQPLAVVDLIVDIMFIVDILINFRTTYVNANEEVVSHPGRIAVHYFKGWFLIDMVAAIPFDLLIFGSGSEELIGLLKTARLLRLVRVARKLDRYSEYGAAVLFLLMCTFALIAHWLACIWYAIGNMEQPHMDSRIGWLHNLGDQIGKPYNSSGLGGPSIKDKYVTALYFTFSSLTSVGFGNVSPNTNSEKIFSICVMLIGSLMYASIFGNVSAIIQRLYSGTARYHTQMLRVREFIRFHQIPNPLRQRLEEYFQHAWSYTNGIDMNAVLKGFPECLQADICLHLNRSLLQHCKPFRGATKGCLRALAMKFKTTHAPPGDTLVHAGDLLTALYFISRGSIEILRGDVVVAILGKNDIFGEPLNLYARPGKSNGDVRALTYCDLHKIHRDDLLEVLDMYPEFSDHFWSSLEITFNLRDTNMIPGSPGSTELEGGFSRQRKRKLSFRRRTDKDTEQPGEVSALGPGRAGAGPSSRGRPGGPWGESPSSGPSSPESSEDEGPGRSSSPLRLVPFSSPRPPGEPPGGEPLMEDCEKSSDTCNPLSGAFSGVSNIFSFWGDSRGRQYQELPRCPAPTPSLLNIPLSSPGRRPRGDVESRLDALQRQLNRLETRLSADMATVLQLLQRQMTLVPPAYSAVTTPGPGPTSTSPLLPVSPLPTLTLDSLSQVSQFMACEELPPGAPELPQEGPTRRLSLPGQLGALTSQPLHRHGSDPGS
Assay: Inhibition of human ERG expressed in CHOK1 cells at 100 uM
Format: cell-based
Condition Parameters: CHOK1 cells that express human ERG
Measured Quantity: inhibition at 100 µM (%)
Numbers only here, please. The scale is %.

### Prompt Lab request: please report inhibition at 100 µM under test system hERG (KCNH2) (Homo sapiens) for `COc1c(N2C[C@@H]3CCOC[C@@]3(N)C2)c(F)cc2c(=O)c(C(=O)O)cn([C@@H]3C[C@@H]3F)c12`
### Response -2.5
